Biological target: Pro-neuregulin-1, membrane-bound isoform (Homo sapiens)
Assay: NRG1 binders on small-molecule microarrays, primary screen, psychiatric disease protein project, biochemical, small-molecule microarray, fluorescence 635/667 (AID 1075);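 further: score combines 667 nm spot fluorescence with signal to noise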
Conditions: NRG1 binding, 635 nm fluorescence, higher = more signal
reported-endpoint: composite z-score

C[C@H]1C2=C3C(CC[C@H]4C(OCc5ccc(F)cc5C(F)(F)F)OC[C@](C)([C@@H]34)N(C(=O)OC(C)(C)C)C2)C2COC(=O)OCC21 (some centres not stated) = 1.71
C=CCN1Cc2ccccc2C[C@@]2(N=C(c3ccc(OCCCO)cc3)O[C@H]2c2ccccc2)C1=O = 1.04
CC(C)CNC(=O)[C@@]1(c2ccc([N+](=O)[O-])cc2)CC(=O)N(C2CCCCC2)[C@@H]1c1ccc(CO)cc1I = 1.14
COCCCNC(=O)[C@]1(Cc2ccccc2CN=[N+]=[N-])N=C(c2ccc(OCCCO)cc2)O[C@@H]1c1ccccc1 = 0.969
COC(=O)[C@@]1(Cc2ccc(F)cc2)[C@H]2c3cc(C(=O)N4CCCC4)n(CCc4c[nH]c5ccc(OC)cc45)c3C[C@H]2CN1C(=O)c1ccccc1 = 1.46
CCOC(=O)C1=C[C@@H](c2ccccc2)N(S(=O)(=O)c2ccc(C)cc2)[C@H]1c1cccc(Cl)c1 = 1.34
CC(C)(C)OC(=O)CC[C@]1(C(=O)O)N=C(c2ccc(OCCCO)cc2)O[C@H]1c1ccccc1CN=[N+]=[N-] = 1

----------
In this section, each of the compounds is paired with its reported composite z-score.
Experiment: small-molecule binders of probe aLefty1, primary screen, biochemical, small-molecule microarray, 635/667 nm fluorescence (AID 1153);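 further: score merges spot fluorescence with signal-to-noise ratio from the scanned slide images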
Conditions: higher = more signal
reported-endpoint: composite z-score

CN(C)C(=O)[C@]1(CCC(=O)OC(C)(C)C)N=C(c2ccc(OCCCO)cc2)O[C@@H]1c1ccccc1 = 0.217
O=C1O[C@@H](c2ccccc2)[C@@H](c2ccccc2)N2[C@@H](c3ccccc3OCCO)[C@]3(C(=O)Nc4ccc(C#CCCO)cc43)[C@@H](C(=O)Nc3nc4ccccc4s3)[C@H]12 = 0.13
CON(C)C(=O)C=C1C[C@@H](c2cccc(Cl)c2)O[C@@H](c2cccc(Cl)c2)O1 = -0.0035
CC(C)NC(=O)[C@@]1(C)c2ccccc2C(=O)N(C(C)C)[C@H]1c1ccc(CO)cc1 = -0.0699
C=CCOC(=O)[C@@H]1[C@H]2C(=O)O[C@H](c3ccccc3)[C@H](c3ccccc3)N2[C@H](c2ccc(OCCOC(=O)[C@H]3C[C@H]4C(=O)N[C@@H](CC(C)C)C(=O)N4[C@H]3c3ccc(O)cc3)cc2)[C@@]12C(=O)Nc1ccc(I)cc12 = 0.0278
COC(=O)[C@@]1(Cc2ccccc2)[C@H]2c3cc(C(=O)N4CCCC4)n(Cc4cc(F)cc5c4OCOC5)c3C[C@H]2CN1C(=O)c1ccccc1 = 0.0752
CC=CC(O)C1C=CC2C(=O)N(c3ccccc3)C(=O)C2N1Nc1ccc([N+](=O)[O-])cc1 (configuration not stated) = 0.0378
C=CCN1C(=O)[C@@]2(CCC(=O)OC(C)(C)C)N=C(c3ccc(OCCCO)cc3)O[C@H]2c2ccccc21 = 0.466
COC(=O)[C@H](Cc1ccccc1)N1CC(/C=C/C2CC2)=C[C@@H]1[C@@H](O)Cc1ccccc1 = 0.0082
COC(=O)[C@@]1(Cc2ccc(OC)cc2)[C@H]2c3cc(C(=O)N4CCCC4)n(CCc4cc5ccccc5[nH]4)c3C[C@H]2CN1C(=O)c1ccccc1 = 0.712
[N-]=[N+]=Nc1ccccc1C[C@@]1(C(=O)O)N=C(c2ccc(OCCCO)cc2)O[C@@H]1c1ccccc1 = 0.273
C=CCN1C(=O)[C@@]2(O[C@@H](CCn3cc([C@H](O)c4ccccc4)nn3)[C@H]([Si](C)(C)c3ccc(OC)cc3)[C@H]2C)c2ccccc21 = 0.276
CCOc1cc(C(O)C2C=CC3C(=O)N(C)C(=O)C3N2N2CCCCC2)ccc1O (configuration not stated) = 0.267
COc1cc(CO)cc(I)c1O[C@H]1C=C(C(=O)NCCO)C[C@@H](N(CC2CCCCC2)C(=O)c2ccc(C(F)(F)F)cc2)[C@@H]1O = -0.0547
COC(=O)[C@@]1(Cc2ccc(F)cc2)[C@H]2c3cc(C(=O)N4CCCC4)n(CCF)c3C[C@H]2CN1C(=O)c1ccccc1 = 2.02
CC(C)(C)OC(=O)CC[C@@]1(C(=O)O)N=C(c2ccc(OCCCO)cc2)O[C@@H]1c1ccccc1 = 0.284
NC(=O)N1C(=O)C2C(C1=O)C1C=C(c3ccc(CO)cc3)C2C(C2CC2)N1Cc1sc2ccccc2c1Cl (configuration not stated) = 0.317

----------
Assay: HepG2 liver cancer cell viability effects, profiling panel, resazurin fluorescence, 24 h, PK04 Diversity Set (AID 1172)
Details: higher = more signal
In this section, each of the compounds is paired with its reported z-score.
reported-endpoint: z-score

Cc1c(NC(=O)/C(C#N)=C/C=C/c2ccccc2[N+](=O)[O-])c(=O)n(-c2ccccc2)n1C = -1.25
COc1cc(OC)c(C(O)C2C=CC3C(=O)N(c4ccccc4)C(=O)C3N2Nc2ccc(C#N)cc2)cc1Br (centres undefined) = -0.99
O=C(N1CCCCC1)[C@@]1(Cc2ccccc2)COC(c2ccc(OCCCO)cc2)=N1 = 0.271
CCOc1cc(C(O)C2C=CC3C(=O)N(C)C(=O)C3N2N2CCCCC2)ccc1O (centres undefined) = -1.1
CN1C(=O)C2C=CC(C(O)C3CCCCC3)N(N3CCCCC3)C2C1=O (centres undefined) = -0.435
CN(C)CCCNC(=O)[C@@]1(c2ccc([N+](=O)[O-])cc2)CC(=O)N(CC23CC4CC(CC(C4)C2)C3)[C@@H]1c1ccc(CO)cc1 = -6.19
CCOC(=O)C[C@H]1[C@H](OC(=O)c2ccc(-c3ccccc3)cc2)[C@@H](NC(=O)c2ccc3ccccc3n2)c2cc(OCCCO)ccc2N1C(=O)c1ccccc1 = -0.576
C[N+](C)(C)CCCC[C@@H]1NC(=O)[C@@H]2C[C@H](C(=O)O)[C@H](c3ccc(O)cc3)N2C1=O = -1.16
CC(=O)N1Cc2ccccc2C[C@]2(N=C(c3ccc(OCCCO)cc3)O[C@@H]2c2ccccc2)C1=O = -0.908

----------
In this section, each of the compounds is paired with its reported composite z-score.
System: XIP peptide (Xip251-270) binding
Experiment: small-molecule binders of XIP peptide, primary screen, biochemical, small-molecule microarray, fluorescence 635/667 nm, 0.1 µg/mL protein (AID 1182)
Conditions: fluorescent protein binding, 635 nm, higher = more signal, called active from +8 up or from −8 down
reported-endpoint: composite z-score

CC1CC/C=C\[C@H]2OC34C=CCN(CCN5CCOCC5)C(=O)[C@H]3N(CCO)C(=O)[C@@H]4C2C(=O)O1 (stereo partly specified) = 0.467
COc1ccccc1CN1C(=O)c2ccccc2[C@@H](C(=O)NC(C)C)[C@@H]1c1ccc(CO)cc1 = 0.0282
O=C(CCCCCCC(=O)Nc1ccccc1)N/N=C/c1ccccc1 = -0.531
CC(=O)n1cc(C(O)C2C=CC3C(=O)N(Cc4ccccc4)C(=O)C3N2n2cnnc2)c2ccccc21 (stereo unspecified) = 0.097
C=CCC(OC(C)=O)[C@@H]1[C@@H](N(Cc2ccc(-c3ccccc3)cc2)C(=O)c2cccc3ccccc23)c2cc(OCCCO)ccc2N1C(=O)Cc1ccc2ccccc2c1 (stereo partly specified) = -0.366
C[n+]1ccc(CCCO)cc1 = 0.955

----------
Tested on: glycogen synthase kinase-3 (GSK3A per assay name; protocol says GSK3B)
Assay: GSK3 binders on small-molecule microarrays, primary screen, biochemical, small-molecule microarray, 635 nm fluorescence, GSK3A (AID 1103); further: the record names both GSK3A and GSK3B
Settings: small-molecule microarray binding, fluorescence 635 nm; higher = more signal
Outcome: rule met for composite z-score of at least 0.4; rule not met for anything lower.

COC(=O)[C@@]1(Cc2ccc(F)cc2)[C@H]2c3cc(C(=O)N4CCCC4)n(CCc4c[nH]c5ccc(OC)cc45)c3C[C@H]2CN1C(=O)c1ccccc1 = rule met
CN1C(=O)C2C(C1=O)C1C=C(c3ccc(CO)cc3)C2C(c2cccs2)N1Cc1cccc(OC(F)(F)F)c1 (centres undefined) = rule met
CCCCN1CC=CC23O[C@@H]4/C=C\CCC(C)OC(=O)C4[C@H]2C(=O)N(CCCCCCO)[C@@H]3C1=O (some centres undefined) = rule not met
CCOC(=O)C[C@H]1[C@H](OC(=O)c2ccccc2-c2ccccc2)[C@@H](NC(=O)CC(C)C)c2cc(OCCCO)ccc2N1C(=O)c1ccc2ccccc2n1 = rule met
O=C1O[C@@H](c2ccccc2)[C@@H](c2ccccc2)N2[C@@H](c3ccc(O)cc3)[C@]3(C(=O)Nc4ccccc43)[C@@H](C(=O)Nc3nc4ccccc4s3)[C@H]12 = rule met
COc1ccc(C#Cc2ccc3c(c2)[C@]2(C(=O)N3)[C@H](C(=O)N3CCc4cc(OC)c(OC)cc4C3)[C@H]3C(=O)O[C@H](c4ccccc4)[C@H](c4ccccc4)N3[C@@H]2c2ccc(O)cc2)cc1 = rule met
CO[C@H]1O[C@H](CO)[C@@H](OC(=O)Nc2ccc(Oc3ccccc3)cc2)[C@H](OC(=O)Nc2ccccc2-c2ccccc2)[C@@H]1OC(=O)Nc1ccccc1-c1ccccc1 = rule met
NC(=O)N1C(=O)C2C(C1=O)C1C=C(CCCO)C2C(c2cccs2)N1Cc1cc2c(cc1Br)OCO2 (centres undefined) = rule not met
CN(C)C(=O)[C@@]1(Cc2ccccc2N=[N+]=[N-])COC(c2ccc(OCCCO)cc2)=N1 = rule met
COCCCNC(=O)[C@@H]1c2ccccc2C(=O)N(Cc2ccccc2C(F)(F)F)[C@H]1c1ccc(CO)cc1 = rule met
COc1cc2c(cc1OC)CN(C(=O)[C@H]1[C@@H]3C(=O)O[C@@H](c4ccccc4)[C@@H](c4ccccc4)N3[C@@H](c3ccc(OCCO)cc3)[C@]13C(=O)Nc1ccc(C#CCCO)cc13)CC2 = rule met
CCOC(=O)C1=CC[C@@H](c2ccccc2)N(S(=O)(=O)c2ccc(C)cc2)C1 = rule not met
CCCNC(=O)[C@@]1(c2ccc([N+](=O)[O-])cc2)CC(=O)N(C2CCCCC2)[C@@H]1c1ccc(CO)cc1I = rule met
CC(C)(C)OC(=O)CC[C@]1(C(=O)O)N=C(c2ccc(OCCCO)cc2)O[C@H]1c1ccccc1CN=[N+]=[N-] = rule not met
COC(=O)[C@@]1(Cc2ccc(OC)cc2)[C@H]2c3cc(C(=O)N(C)C)n(Cc4nc5ccccc5[nH]4)c3C[C@H]2CN1C(=O)c1ccccc1 = rule met
COc1cc(CO)cc(I)c1O[C@H]1C=C(C(=O)NCCO)C[C@@H](NCc2ccccc2F)[C@@H]1O = rule met
C=CCNC(=O)[C@H]1[C@@H]2C(=O)O[C@@H](c3ccccc3)[C@@H](c3ccccc3)N2[C@@H](c2ccccc2OCCO)[C@]12C(=O)N(C(=O)OCCOC)c1ccc(C#CC3=CCCCC3)cc12 = rule met
C=CC[C@H](OC(=O)Nc1ccc(OC)cc1)c1ccc(O)c2ccccc12 = rule met
Cc1ccc(S[C@]2(C(=O)NC3CC3)CC(=O)N(Cc3ccccc3Cl)[C@@H]2c2ccc(CO)cc2I)cc1 = rule met
CCOC(=O)C1=CC[C@@H](c2ccc([N+](=O)[O-])cc2)N(S(=O)(=O)c2ccc(C)cc2)[C@H]1c1ccccc1 = rule not met
CN(C)CCCN1C(=O)[C@@]2(c3ccc([N+](=O)[O-])cc3)CC(=O)N(CC34CC5CC(CC(C5)C3)C4)[C@@H]2c2ccc(CO)cc21 = rule met
O=C1c2ccccc2[C@@]2(Cc3ccccc3N(C3CC3)C2=O)[C@H](c2ccc(CO)cc2)N1C1CCCCC1 = rule not met
C[N+](C)(C)CCCC[C@@H]1NC(=O)[C@@H]2C[C@H](C(=O)O)[C@H](c3ccc(O)cc3)N2C1=O = rule not met

Recorded values, source PubChem BioAssay.
